Assay: Solubility by HPLC
Assay type: physicochemical
Conditions: organic solvent or mixture, thermodynamic from solid; Heptane, room temperature, 24 hr
value-kind: solubility at 24 h

response.value for Cc1nc2cccc(N)c2c(=O)n1C1CCC(=O)NC1=O.Cl (stereo not shown) [Form A1] (field: solubility at 24 h) = < 1 µg/mL

* * *

Test: Solubility by HPLC
Format: physicochemical
Conditions: aqueous buffer, thermodynamic from solid; Phosphate buffer (pH 6.8), room temperature, 24 hr
value-kind: solubility at 24 h

response.value for Cc1nc2cccc(N)c2c(=O)n1C1CCC(=O)NC1=O.Cl (stereo not shown) [Form A1] (field: solubility at 24 h) = 30 µg/mL
